Reference source: ChEMBL document CHEMBL3861949

- experimental.system: Isoleucine--tRNA ligase (Thermus thermophilus (strain HB8 / ATCC 27634 / DSM 579), UniProt P56690, H581N/L583F)
- Sequence (P56690 whole entry H581N/L583F): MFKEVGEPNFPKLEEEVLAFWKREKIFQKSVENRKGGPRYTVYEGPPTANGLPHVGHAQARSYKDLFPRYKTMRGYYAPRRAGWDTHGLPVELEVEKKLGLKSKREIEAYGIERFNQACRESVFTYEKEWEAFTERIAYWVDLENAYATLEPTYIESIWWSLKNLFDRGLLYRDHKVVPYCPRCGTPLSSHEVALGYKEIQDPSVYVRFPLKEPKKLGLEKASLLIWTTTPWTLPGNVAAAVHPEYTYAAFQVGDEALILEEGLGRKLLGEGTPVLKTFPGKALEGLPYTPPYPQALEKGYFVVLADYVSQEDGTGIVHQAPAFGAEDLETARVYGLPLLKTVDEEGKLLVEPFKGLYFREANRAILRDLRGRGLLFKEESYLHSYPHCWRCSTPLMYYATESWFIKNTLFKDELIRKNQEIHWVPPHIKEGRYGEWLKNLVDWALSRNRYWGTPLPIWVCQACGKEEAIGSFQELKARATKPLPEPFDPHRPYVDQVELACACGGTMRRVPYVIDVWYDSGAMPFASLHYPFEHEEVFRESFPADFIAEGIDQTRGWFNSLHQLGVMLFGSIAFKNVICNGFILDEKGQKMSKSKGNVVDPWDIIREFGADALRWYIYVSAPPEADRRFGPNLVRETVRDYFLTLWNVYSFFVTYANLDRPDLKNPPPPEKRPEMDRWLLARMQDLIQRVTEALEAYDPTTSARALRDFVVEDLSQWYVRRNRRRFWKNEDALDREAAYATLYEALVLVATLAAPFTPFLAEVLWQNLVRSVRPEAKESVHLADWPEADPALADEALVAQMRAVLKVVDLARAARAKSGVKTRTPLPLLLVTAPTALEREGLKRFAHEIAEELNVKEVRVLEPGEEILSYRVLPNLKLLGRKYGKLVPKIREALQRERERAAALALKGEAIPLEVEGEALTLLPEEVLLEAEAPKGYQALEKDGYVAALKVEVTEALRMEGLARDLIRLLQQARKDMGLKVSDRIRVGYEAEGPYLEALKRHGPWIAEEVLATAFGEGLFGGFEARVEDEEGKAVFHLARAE
- protocol.notes: Inhibition of recombinant Thermus thermophilus HB8 IleRS H581N/L583F double mutant assessed as suppression of L-[14C]isoleucyl-tRNA(Ile) formation
reported.endpoint: Ki
Write your answer as a measured quantity: the number, then the unit.

INPUT: Using the record for C/C(=C\C(=O)OCCCCCCCCC(=O)O)C[C@@H]1OC[C@H](C[C@@H]2O[C@H]2[C@@H](C)[C@H](C)O)[C@@H](O)[C@H]1O [MUPIROCIN] , state its measured Ki.
OUTPUT: 2.73 µM
